Molecular target: T1, Lsb1, P53281
T1 sequence (P53281 45-122, looked up): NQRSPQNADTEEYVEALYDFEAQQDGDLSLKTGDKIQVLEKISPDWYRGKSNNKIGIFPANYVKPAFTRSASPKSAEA
Assay: SPOT array
Details: median of control spots 388
Assay Metric: SPOT intensity
Numbers only.

Please review the following examples before continuing.
VQKRKLPLPGSIASA : 0
NHSRSLFSLPGNQQS : 46
TKFRISLGLPVGAIM : 44
FIRKRAPTPPAPSRS : 1190
DLFKPLPEPPTELGR : 0

Each binder below has a reported value. Please supply its SPOT intensity.
1. QLLNPNRRAPRRPLS
2. QLMKNLPKIPLLNDI

1: 56; 2: 6
